Data origin: patent US9550796B2

system: MV-4-11; assay: Cell growth inhibition assay (CellTiter-Glo), MV-4-11; assay type: cell-based, human; details: MV-4-11 cells, 4 days, total growth inhibition
Item-by-item account of MV-4-11 TGI
Kindly answer with a numeric value in µM, unit omitted.

Reference set (6 entries):
- Compound: "CC(=O)Nc1cn(C)c2c1C(=O)N(c1cc(C)c3nnc(C(F)F)n3c1)C2c1ccc(Cl)cc1 (centres unmarked)"
  Target entity: "MV-4-11"
  MV-4-11 TGI / µM: 0.0497
- Compound: "Cc1cn(C(=O)N(C)C)c2c1C(=O)N(c1cc(C)c3nnc(C)n3c1)C2c1ccc(Cl)cc1 (centres unmarked)"
  Target entity: "MV-4-11"
  MV-4-11 TGI / µM: 0.03625
- Compound: "Cc1cn(C)c2c1C(=O)N(c1cc(C)c3nnc(C)n3c1)C2c1ccc(Cl)cc1 (centres unmarked)"
  Target entity: "MV-4-11"
  MV-4-11 TGI / µM: 0.02005
- Compound: "Cn1cc(-c2cc3c(n2C2CC2)C(c2ccc(Cl)cc2)N(c2cc(Cl)c(=O)n(C)c2)C3=O)ccc1=O (centres unmarked)"
  Target entity: "MV-4-11"
  MV-4-11 TGI / µM: 0.08745
- Compound: "COc1nccc(-c2cc3c(n2C)C(c2ccc(Cl)cc2)N(c2cc(Cl)c(=O)n(C)c2)C3=O)n1 (centres unmarked)"
  Target entity: "MV-4-11"
  MV-4-11 TGI / µM: 0.105
- Compound: "CC(=O)N1CC(n2cc(C3CC3)c3c2C(c2ccc(Cl)cc2)N(c2cc(C)c4nnn(C)c4n2)C3=O)C1 (centres unmarked)"
  Target entity: "MV-4-11"
  MV-4-11 TGI / µM: 0.00243

query: Fill in: MV-4-11 TGI of Cn1ccc2c1C(c1ccc(Cl)cc1)N(c1cc(Cl)c(=O)n(C)c1)C2=O (centres unmarked) is ___
result: 0.178

###

tested on: THP-1; test: Cell growth inhibition assay (CellTiter-Glo), THP-1; assay type: cell-based, human; settings: THP-1 cells, 4 days, total growth inhibition
# THP-1 TGI >= 0.3 µM gives T, anything below gives F

Use the examples below as a reference point.
- Compound: "Cc1cc(N2C(=O)c3cc(-c4cccn(C)c4=O)n(C)c3C2c2ccc(Cl)cc2)cn(C)c1=O (stereo not shown)"
  Target entity: "THP-1"
  Cat: "T"
- Compound: "Cc1cc(N2C(=O)c3c(C4CC4)cn(C4COC4)c3C2c2ccc(Cl)cc2)nc2c1nnn2C (stereo not shown)"
  Target entity: "THP-1"
  Cat: "F"
- Compound: "COCC(=O)N1CC(n2cc(C)c3c2C(c2ccc(Cl)cc2)N(c2cc(C)c4nnc(C)n4c2)C3=O)C1 (stereo not shown)"
  Target entity: "THP-1"
  Cat: "T"
- Compound: "Cc1cc(N2C(=O)c3c(C4CC4)c(C)n(C)c3C2c2ccc(Cl)cc2)cn2c(C)nnc12 (stereo not shown)"
  Target entity: "THP-1"
  Cat: "F"

query: Determine whether measured THP-1 TGI meets or exceeds 0.3 µM for Cc1cc(N2C(=O)c3cc(-c4cccc(=O)n4C)n(C)c3C2c2ccc(Cl)cc2)cn(C)c1=O (stereo not shown)
result: T

query: Determine whether measured THP-1 TGI meets or exceeds 0.3 µM for COc1ccc(C2c3c(ccn3C)C(=O)N2c2cc(C)c(=O)n(C)c2)cc1 (stereo not shown)
result: T
